Test: qHTS for Inhibitors of human tyrosyl-DNA phosphodiesterase 1 (TDP1): qHTS in cells in presence of CPT; also: nearly all actives have a fitted effect of over 55% in size; also: potency is read from the fitted curve at half-maximal effect
Settings: chicken DT40 Tdp1-/-;hTDP1 cells + 20 nM CPT, ATP luminescence, 48 h; series mostly up to 46.2 µM
The campaign covered roughly 420,000 compounds. About 50,000 (12%) were called active. Roughly 26% stayed inconclusive and do not appear here. For the sample, actives were picked, then their nearest neighbours and some compounds at random.
MEASURE: Potency

A selection of reference data follows.
>>> reading("COc1ccc(N(CC(=O)Nc2ccc(C)cc2C)S(=O)(=O)c2ccccc2[N+](=O)[O-])c(OC)c1")
"inactive"
>>> reading("COc1cc(OC)c(NC(=O)c2cc(S(=O)(=O)N3CCCC3)cn2C)cc1Cl")
"inactive"
>>> reading("O=C(c1cccc(Cn2cccn2)c1)N1CCOc2c(cc(-c3csc4ccccc34)cc2OC2CCOC2)C1 (stereo not drawn)")
"18.4 µM (active)"
>>> reading("COc1ccc(N2CCN(c3cc(C)nc4nncn34)CC2)cc1")
"13 µM (active)"
>>> reading("CCOC(=O)CNc1nc(Cl)nc(Nc2ccccc2)n1")
"inactive"

Request the reported Potency associated with `Cc1cccc(NC(=O)CSc2nnc(-c3ccco3)o2)c1`
inactive

Request the reported Potency associated with `CCCCc1nc(NCc2ccccc2)c(C#N)c2c1CCCC2`
inactive

Request the reported Potency associated with `c1ccc2c(CNn3cnnc3)cccc2c1`
inactive

Request the reported Potency associated with O=C(NCCCN1CCCCCC1)C1CC(=O)N(C2CCCC2)C1 (stereo not drawn)
inactive

Request the reported Potency associated with Cc1cnc(C)c(-c2cc(F)c3c(c2)CC(CNC(=O)c2cccc(Cn4cccn4)c2)O3)n1 (stereo not drawn)
inactive

Request the reported Potency associated with `CCOc1ccccc1NC(=O)Cc1cccs1`
inactive

Request the reported Potency associated with O=C(NC1CC(=O)N(c2ccc(F)cc2)C1)c1cccs1 (stereo not drawn)
inactive
